Method: yeast display, Sf9 membrane polyspecificity reagent, FACS + sequencing; frameworks hold sequencing errors
Endpoint Label: polyreactivity (PSR sort gate)

Would you please look over these solved cases?
# Residue Codes, Meas Value
measured = [
    ("QVQLVESGGGLVQAGGSLRLTCAASGSISGLYTMGWYRQAPGKERELVAAIRWTTGTTYYADSVKGRFTISRDNAKNTVYLQMNSLKPEDTAVYYCNVVTWYYVFRPWEYDYWGQGTQVTVSS", "low polyreactivity"),
    ("QVQLVESGGALVQAGGSLRLSCAASGSTFLGYTMGWYRQAPGKERELVAAITSSGGRTYYADSVKGRFTISRDNAKYTVYLQMNSLIPEDTAVYYCATREYYPYSTRYSISYDYWGQGTQVTVSS", "high polyreactivity"),
    ("QVQLVESGGGLVQAGGSLRLSCAASGSTIFYNAMGWYSKAPGKERELVAAITDSGGSTYYADSVKGRFTISRDNAKNTVYLQMNSLKPEDTAVYYCAKRNFDNPIFDYWGQGTQVTVSS", "low polyreactivity"),
    ("QVQLVESGGGLVQAGGSLRLSCADSGRIFNPYAMGWYRQAPGKERELVAGISWGGGSTRYADSVKGRFTISRDNAKNTVYLQMNSLKPVDTAVYYCNSGSYYKRFDYWGKGTQVTVSS", "high polyreactivity"),
    ("QVQLVESGGGLGQAGGSLRLSCAASGGTFYYYAMGWSRQAPGKERELVAAITESGGSTYYGDSVKGRFTISRDNAKNTVNLQMNSLKPEDTAVYYCAAETYYGDDGYWGQGTQVTVSS", "low polyreactivity"),
    ("QVQLVESGGGLVQAGGSLLLSCAASGRTFSRNAMGWYRQAPGKERELVASIRSGGTTNYADSVKGRFTISRDNAKNTVYLQMNSLKPEVTAVYYCNAGDTFLDPCSQYLFDYWGQGTLVTVSS", "low polyreactivity"),
]

Fill blank: measured polyreactivity (PSR sort gate) of the sequence QVQLVESGGALVQAGGSLRLSCAASGRIFWDYVMGWYRQAPGKEREFVAAISLDGNITYYADSVKGRFTISRDNAKNTVYLQMNSLKPEDTAVFYCAADQYFFFRARGYDYWGQGTQVTVSS is ____.
low polyreactivity

Fill blank: measured polyreactivity (PSR sort gate) of the sequence QFQLVESGGGLVQAGGSLRLSCAASGSIFFYYAMGWYRQAPGKERELVAAITFTGGSTYYADSVKGRFTISRDNAKNTVYLQMNSLKPEDTAVYYCADYWYYGDEYVYWGQGTQVTVSS is ____.
high polyreactivity

Fill blank: measured polyreactivity (PSR sort gate) of the sequence QVQLVESGGGLVQAGGSLRLSCAASGFIFFVNAMGWSRQAPGKEREFVATITGSGGSTYYADSVKGRFTISRDNAKNTVYLQMNSLKPEDTAVYYCAADSLTPKSASDYWGQGTQVTVSS is ____.
low polyreactivity

Fill blank: measured polyreactivity (PSR sort gate) of the sequence QVQLVESGGGLVQAGGSLRLSCAASGSTLWRYAMGWYRQAPGKEREFVAAISGSGGSTYYADSVKGRFTISRDNAKNTVYLLMNSLKPEDTAVYYCAASRKYRNPDRSMYYWGQGTQVTVSS is ____.
high polyreactivity

Fill blank: measured polyreactivity (PSR sort gate) of the sequence QVQLVESGGGLVQAGGSLRLSCAASGFIFDDNSMGWYRQAPGTEREFVAAISQGAGSTYYADSVKGRFTISRDTAKNTVNLQMNSLKPEDTAVYYCNNGRPKYWYGYKYDYWGHGTQVTVSS is ____.
low polyreactivity

Fill blank: measured polyreactivity (PSR sort gate) of the sequence QVQLVESGGGLVQAGGSLRLSCAASGRIFYYYAMGWYRQAPGKERELVAAISQRGGRTYYADSVKGRFTISRDNAKNTVYLQMNSLKPEDTAVYYCNDYPVYGRYTHYGYGHWGQGTQVTVSS is ____.
high polyreactivity

Fill blank: measured polyreactivity (PSR sort gate) of the sequence QVQLVESGGGLVQAGGSLRLTCAASGRIFSSYAMGWYRQAPGKERELVAAITGRDGSTYYADSVKGRFTISRDNAKNTVYLQMNSLKPEETAVYYCAASRFYFPLTFGGYPKLASYDYWGQGTQVTVSS is ____.
low polyreactivity

Fill blank: measured polyreactivity (PSR sort gate) of the sequence QVQLVESGGGLVQAGGSLRLSCAASGIIFFHYAMGWYRQAPGKERELVAAITWSGGSTYYADSVKGRFTISRDNAKNTVYLKMNSLKPEDSAVYYCNAVLHRRLYDYWGQGPQVTVSS is ____.
high polyreactivity

FYI, the data here is from the nanobody polyreactivity screen of Harvey et al. (2022).
